B1: TPR t1 (parent)
chain: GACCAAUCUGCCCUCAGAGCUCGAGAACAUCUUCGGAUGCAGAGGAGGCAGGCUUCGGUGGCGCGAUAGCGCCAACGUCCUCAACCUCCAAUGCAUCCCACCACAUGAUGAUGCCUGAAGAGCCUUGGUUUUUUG

Variants of: B1
Assay explanation: polymerase ribozyme fitness, log enrichment relative to wild type (log ratio); higher = more active; in vitro selection for triplet polymerase activity
Recorded endpoint: polymerase ribozyme fitness (log ratio)

Solved cases below.
C79U C80A; -3.65
C49A G69C A83C A84U; -4.35
A5U C72G U81C; -1.14
C8U G61U; 0.435
G44A G77A U106C G117A; -3.03
C76U C86U A91U; -3.49

# return recorded polymerase ribozyme fitness (log ratio) for input C13U C70A C72U
-1.42

Name the recorded polymerase ribozyme fitness (log ratio) of the item C12G C13A G45C C56U in your answer.
-1.27

Specify measured polymerase ribozyme fitness (log ratio) for C15G G113C .
-6.27
